Attribution: PubChem BioAssay

Assay: small-molecule microarray binders of probe aWnt5a, primary screen, biochemical, biotinylated probe, 635/667 nm fluorescence (AID 1113);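 also: score merges 667 nm fluorescence intensity with signal-to-noise per printed feature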
Conditions: higher = more signal
parameter: composite z-score
The reply should be a number, written without any unit.

Example results:
compound: CO[C@H]1O[C@H](CO)[C@@H](OC(=O)Nc2ccc(C(F)(F)F)cc2)[C@H](OC(=O)Nc2ccccc2-c2ccccc2)[C@@H]1OC(=O)Nc1ccccc1-c1ccccc1
composite z-score: 0.0181
//
compound: CCCC[C@@H](O)C1=C(COC)Cn2c(=O)n(-c3ccccc3)c(=O)n2[C@H]1CO
composite z-score: -0.172
//
compound: COCCOC(=O)N1C(=O)[C@@]2(c3cc(C#Cc4ccc(OC)cc4)ccc31)[C@H](C(=O)N1CCCCCCC1)[C@H]1C(=O)O[C@H](c3ccccc3)[C@H](c3ccccc3)N1[C@@H]2c1ccccc1OCCO
composite z-score: 1.16
//
compound: O=C1N(Cc2ccccc2)c2ccccc2[C@H]2OC(c3ccc(OCCCO)cc3)=N[C@@]12Cc1ccccc1
composite z-score: 0.067
//
compound: C=C(CCCC)/C(=C/C[C@H](OC(C)=O)c1cccc(OCCO)c1)c1cc(C(=O)OC)ccc1OC
composite z-score: -0.0721

Could you share which composite z-score value was measured for CC(C)CNC(=O)[C@@H]1c2ccccc2C(=O)N(CC23CC4CC(CC(C4)C2)C3)[C@H]1c1ccc(CO)cc1 ?
-0.0685

Could you share which composite z-score value was measured for CN1C(=O)C2C=CC(C(O)c3ccc(-c4ccccc4)s3)N(Nc3ccccc3)C2C1=O (stereo not drawn) ?
-0.0103

Could you share which composite z-score value was measured for CN1C(=O)[C@]2(CCS(=O)(=O)c3ccccc3)N=C(c3ccc(OCCCO)cc3)O[C@@H]2c2ccccc21 ?
-0.0704

* * *

Experiment: binders of probe aFST on microarray, primary screen, stem cell growth factor project, biochemical, small-molecule microarray, fluorescence 635/667 (AID 1086);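 also: score merges 667 nm fluorescence with signal-to-noise of each printed compound spot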
Conditions: higher = more signal
# cutoff 0.3 applies to composite z-score; >= gives Criterion met, < gives Criterion not met

Hi, just wondering whether Cc1ccc(S[C@]2(C(=O)NCC(F)(F)F)CC(=O)N(C3CCCCC3)[C@@H]2c2ccc(CO)cc2)cc1 shows composite z-score of 0.3 or higher.
Criterion met

Hi, just wondering whether C=C(CCCC)/C(=C/C[C@H](OC(C)=O)c1cccc(OCCO)c1)c1cc(C(=O)OC)ccc1OC shows composite z-score of 0.3 or higher.
Criterion not met

Hi, just wondering whether CC(C)C[C@@H]1NC(=O)[C@@H]2C[C@H](C(=O)NCCCC[N+](C)(C)C)[C@H](c3ccc(O)cc3)N2C1=O shows composite z-score of 0.3 or higher.
Criterion not met

Hi, just wondering whether O=C1OCCC=C[C@H]2OC34C=CCN(CCN5CCOCC5)C(=O)[C@H]3N(CCCO)C(=O)[C@@H]4C12 (stereo not given in full) shows composite z-score of 0.3 or higher.
Criterion not met

Hi, just wondering whether CC(C)(C)OC(=O)CC[C@]1(C(N)=O)N=C(c2ccc(OCCCO)cc2)O[C@H]1c1ccccc1CN=[N+]=[N-] shows composite z-score of 0.3 or higher.
Criterion met

Hi, just wondering whether CC(C)C[C@@H]1NC(=O)[C@@H]2C[C@H](C(=O)O)[C@H](c3ccc(O)cc3)N2C1=O shows composite z-score of 0.3 or higher.
Criterion not met

Hi, just wondering whether Cc1ccc(S[C@]2(C(=O)NCCCN(C)C)CC(=O)N(Cc3ccccc3Cl)[C@@H]2c2ccc(CO)cc2I)cc1 shows composite z-score of 0.3 or higher.
Criterion not met

Hi, just wondering whether NC(=O)NCC#Cc1ccc2c(c1)[C@]1(C(=O)N2)[C@H](C(=O)N2CCCCCCC2)[C@H]2C(=O)O[C@H](c3ccccc3)[C@H](c3ccccc3)N2[C@@H]1c1ccc(O)cc1 shows composite z-score of 0.3 or higher.
Criterion met
